- Test system: SH-SY5Y
- assay-explanation: Inhibition of cancer cell proliferation (MTT)
- Assay type: cell-based, human
- condition-set: Homo sapiens, SH-SY5Y, 72 h
metric-name: GI50 (nM)

Exercise: Param readout= GI50; system= SH-SY5Y; entry= Nc1nccc(-c2nc(-c3cccc(N)c3F)ccc2O)n1 ; returns value.
Key: 200

Exercise: Then Nc1nccc(-c2nc(-c3ccnc(N)c3O)ccc2O)n1 ?
Key: 110

Exercise: Continue with Nc1nccc(-c2nc(-c3ccc(O)c(F)c3F)ccc2O)n1
Key: 190

Exercise: Thanks! And Nc1nccc(-c2nc(-c3ccncc3)ccc2O)n1 ?
Key: 240

Exercise: Query Nc1nccc(-c2cc(-c3ccnc(N)n3)c(O)cn2)n1 next
Key: 880

Exercise: Then this compound: Nc1nccc(-c2nc(-c3ccc(O)cc3F)ccc2O)n1
Key: 290

Exercise: Can you check Nc1nccc(-c2nc(-c3ccncc3F)ccc2O)n1 next?
Key: 540

Exercise: Can you check Nc1cc(-c2ccc(O)c(-c3ccnc(N)n3)n2)ccn1 next?
Key: 110

Exercise: How about Nc1cccc(-c2ccc(O)c(-c3ccnc(N)n3)n2)c1 ?
Key: 570

Exercise: Repeat with Nc1nccc(-c2nc(-c3cccc(O)c3)ccc2O)n1
Key: 680

(a) Nc1nccc(-c2nc(-c3ccc(O)cc3)ccc2O)n1
(b) Nc1nccc(-c2ccc(O)c(-c3ccnc(N)n3)n2)n1
Exercise: Hello, I am sorting some records. Could you say if a or b has the smaller GI50 value? Your answer should be the label of the entry you select.
Key: a

----------
- System: NCI-H23
- assay-explanation: Inhibition of cancer cell proliferation (MTT)
- Format: cell-based, human
- condition-set: 72 hrs
metric-name: GI50 (nM)

Exercise: # get_value(readout= GI50, system= NCI-H23) for CC(C)c1cnc(N)nc1-c1nc(-c2ccnc(N)c2F)ccc1O [Example 104]
Key: 80

Exercise: Try Cc1c(-c2nc(-c3ccnc(N)c3F)ccc2O)nc(N)nc1C1CCCN(C)C1 (centres unmarked) [Example 97] next.
Key: 290

Exercise: Item: CCN1CCCC(c2cc(-c3nc(-c4ccnc(N)c4F)ccc3O)nc(N)n2)C1 (centres unmarked) [Example 90]
Key: 390

Exercise: Record: CCCN1CCC(c2cc(-c3nc(-c4ccnc(N)c4F)ccc3O)nc(N)n2)CC1 [Example 87]
Key: 40

Exercise: What would you report for CCCN1CCC(c2nc(N)nc(-c3nc(-c4ccnc(N)c4F)ccc3O)c2C)CC1 [Example 95] ?
Key: 150

(I) CC(C)N1CCCC(c2cc(-c3nc(-c4ccnc(N)c4F)ccc3O)nc(N)n2)C1 (centres unmarked) [Example 92]
(II) Cc1c(-c2nc(-c3ccnc(N)c3F)ccc2O)nc(N)nc1C1CCN(C(C)C)CC1 [Example 96]
(III) CCCN1CCC(c2nc(N)nc(-c3nc(-c4ccnc(N)c4F)ccc3O)c2C)CC1 [Example 44]
(IV) Nc1nc(-c2nc(-c3ccnc(N)c3F)ccc2O)cc(C2CCNCC2)n1 [Example 83]
(V) Nc1nc(-c2nc(-c3ccnc(N)c3F)ccc2O)cc(C2CCOCC2)n1 [Example 85]
Exercise: Sort (5 compounds) by GI50: min first. To answer, arrange all of the labels according to the requested order.
Key: I, V, II, III, IV
(I: 50 nM, V: 140 nM, II: 210 nM, III: 330 nM, IV: 1180 nM)

(A) Cc1cnc(N)nc1-c1nc(-c2ccnc(N)c2F)ccc1O [Example 55]
(B) Cc1c(-c2nc(-c3ccnc(N)c3F)ccc2O)nc(N)nc1C1CCN(C)CC1 [Example 42]
Exercise: Which has the higher GI50, A or B ? Identify your selection by its label.
Key: B

----------
- assay-explanation: Blood brain barrier permeation
- Format: in vivo, ICR mice
- condition-set: male, ICR, mouse, brain/plasma, po, 10 mg/kg, oral once 10 mg/kg, 4 hrs, read-out: B/P ratio
metric-name: Kp at 4 h

Study these solved cases before continuing.
Exercise: Which Kp at 4 h value belongs to Nc1nccc(-c2nc(-c3ccnc(N)c3F)ccc2O)n1 ?
Key: 3.97

Exercise: Proceed to Cc1cc(-c2nc(-c3ccnc(N)c3F)ccc2O)nc(N)n1
Key: 3.18

(a) Nc1nccc(-c2nc(-c3ccncc3)ccc2O)n1
(b) Nc1nccc(-c2ccc(O)c(-c3ccnc(N)n3)n2)n1
Exercise: Could you point out whether the larger Kp at 4 h belongs to a or to b ? Bench note: the answer is the label of the chosen record.
Key: a

----------
- assay-explanation: Blood brain barrier permeation
- Assay type: in vivo, ICR mice
- condition-set: male, ICR, mouse, plasma, po, 30 mg/kg, oral once 30 mg/kg, 1 hr, read-out: Concentration in the plasma
metric-name: concentration at 1 h (ng/mL)

Exercise: Bench note: what concentration at 1 h did Nc1cc(-c2ccc(O)c(-c3ccnc(N)n3)n2)ccn1 show?
Key: 82.6

(a) Nc1nccc(-c2ccc(O)c(-c3ccnc(N)n3)n2)n1
(b) Nc1nccc(-c2nc(-c3ccnc(N)c3F)ccc2O)n1
Exercise: Hi team, can someone confirm which has the larger concentration at 1 h: a or b ? Thanks. I would appreciate it if you answered with the label of your choice.
Key: a
(a: 278 ng/mL, b: 94.3 ng/mL)

----------
- Test system: A549
- assay-explanation: Inhibition of cancer cell proliferation (MTT)
- Assay type: cell-based, human
- condition-set: 72 hrs
metric-name: GI50 (nM)

Exercise: May I ask what GI50 has been recorded for CC(C)c1cnc(N)nc1-c1nc(-c2ccnc(N)c2F)ccc1O [Example 104] ?
Key: 80

Exercise: Quick one: Cc1c(-c2nc(-c3ccnc(N)c3F)ccc2O)nc(N)nc1C1CCN(C(C)C)CC1 [Example 96]
Key: 130

Exercise: Here is the next molecule: Nc1nc(-c2nc(-c3ccnc(N)c3F)ccc2O)cc(C2CCNCC2)n1 [Example 84]
Key: 220

(1) CC(C)c1cc(-c2nc(-c3ccnc(N)c3F)ccc2O)nc(N)n1 [Example 82]
(2) CN1CCC(c2cc(-c3nc(-c4ccnc(N)c4F)ccc3O)nc(N)n2)CC1 [Example 34]
Exercise: Hey, which is lower on measured GI50, 1 or 2 ? # respond with the chosen item's label
Key: 2

(A) CCCc1cnc(N)nc1-c1nc(-c2ccnc(N)c2F)ccc1O [Example 57]
(B) CCN1CCCC(c2cc(-c3nc(-c4ccnc(N)c4F)ccc3O)nc(N)n2)C1 (stereo not drawn) [Example 90]
Exercise: Looking at A and B , which one comes out lower in GI50 terms? Returns: label corresponding to the selected item.
Key: A

(1) CC(C)N1CCC(c2cc(-c3nc(-c4ccnc(N)c4F)ccc3O)nc(N)n2)CC1 [Example 88]
(2) Cc1cnc(N)nc1-c1nc(-c2ccnc(N)c2F)ccc1O [Example 55]
(3) Nc1nc(-c2nc(-c3ccnc(N)c3F)ccc2O)cc(C2CCOCC2)n1 [Example 85]
Exercise: Hello, I need these entries ordered by GI50, highest reading first. Thanks! State the ranking by listing the labels in the requested order.
Key: 2, 3, 1

----------
- test-system: CDK5/p25 (Homo sapiens, UniProt Q00535)
- Construct: purchased Merck Millipore
- Sequence (Q00535 whole entry): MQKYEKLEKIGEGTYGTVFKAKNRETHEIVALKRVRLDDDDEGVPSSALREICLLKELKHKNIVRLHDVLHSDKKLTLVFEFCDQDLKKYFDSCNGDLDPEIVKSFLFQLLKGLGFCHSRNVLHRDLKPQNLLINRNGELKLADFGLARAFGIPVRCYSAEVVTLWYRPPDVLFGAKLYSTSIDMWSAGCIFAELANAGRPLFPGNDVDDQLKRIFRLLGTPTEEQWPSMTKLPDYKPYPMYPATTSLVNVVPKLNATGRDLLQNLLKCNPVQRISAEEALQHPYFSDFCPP
- Sequence (Q15078 99-307 partner limits assumed): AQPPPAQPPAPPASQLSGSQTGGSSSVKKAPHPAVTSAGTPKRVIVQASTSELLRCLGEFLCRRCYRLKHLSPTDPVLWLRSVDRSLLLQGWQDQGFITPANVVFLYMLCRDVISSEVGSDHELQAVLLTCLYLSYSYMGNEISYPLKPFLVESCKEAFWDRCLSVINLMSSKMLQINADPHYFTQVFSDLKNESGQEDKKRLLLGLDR
- assay-explanation: Inhibition of CDK enzyme activity (ADP-Glo kinase assay)
- Assay type: biochemical
- condition-set: 10 uM ATP, histone H1 substrate
metric-name: IC50 (nM)

Exercise: // returns reported IC50 for input Cc1cc(-c2nc(-c3ccnc(N)c3F)ccc2O)nc(N)n1 [Example 71]
Key: 0.3

Exercise: Try this compound too: Nc1nc(-c2nc(-c3ccnc(N)c3F)ccc2O)cc(C2CCNCC2)n1
Key: 9.89

Exercise: Same read-out for Nc1nccc(-c2nc(-c3ccc(O)cc3F)ccc2O)n1 ?
Key: 3.3

Exercise: Same lookup for Nc1nccc(-c2ccc(O)c(-c3ccnc(N)n3)n2)n1 [Example 61] , please.
Key: 0.9

Exercise: How about Cc1cc(-c2nc(-c3ccnc(N)c3F)ccc2O)nc(N)n1 [Example 24] ?
Key: 0.7

(I) Nc1nccc(-c2nc(-c3ccnc(N)c3F)ccc2O)n1 [Example 8]
(II) Nc1nccc(-c2nc(-c3ccnc(N)c3O)ccc2O)n1
(III) Nc1nc(-c2nc(-c3ccnc(N)c3F)ccc2O)cc(N2CCOCC2)n1
(IV) Nc1nccc(-c2nc(-c3ccc(O)c(F)c3)ccc2O)n1
Exercise: Sort (4 compounds) by IC50: min first. The response must list the labels following the requested ordering.
Key: I, II, III, IV

----------
- test-system: CDK4/cyclinD1 (Homo sapiens, UniProt P11802)
- Sequence (P11802 whole entry): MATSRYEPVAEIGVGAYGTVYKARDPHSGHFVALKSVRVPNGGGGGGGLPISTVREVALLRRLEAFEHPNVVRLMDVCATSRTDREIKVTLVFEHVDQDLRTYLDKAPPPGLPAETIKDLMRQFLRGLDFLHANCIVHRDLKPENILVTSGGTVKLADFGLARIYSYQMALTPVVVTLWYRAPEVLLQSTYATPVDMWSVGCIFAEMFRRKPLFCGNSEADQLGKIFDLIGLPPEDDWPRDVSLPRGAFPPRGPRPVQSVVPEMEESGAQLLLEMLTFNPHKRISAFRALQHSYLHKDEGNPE
- Sequence (P24385 whole entry partner): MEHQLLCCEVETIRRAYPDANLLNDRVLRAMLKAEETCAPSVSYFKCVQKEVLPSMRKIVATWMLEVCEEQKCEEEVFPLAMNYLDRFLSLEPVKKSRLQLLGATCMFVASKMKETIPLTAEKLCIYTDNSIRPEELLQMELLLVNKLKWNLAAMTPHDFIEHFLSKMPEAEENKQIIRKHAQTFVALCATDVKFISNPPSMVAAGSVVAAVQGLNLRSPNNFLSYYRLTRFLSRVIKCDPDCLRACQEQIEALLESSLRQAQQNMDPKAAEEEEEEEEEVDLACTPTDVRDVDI
- assay-explanation: Inhibition of CDK enzyme activity (ADP-Glo kinase assay)
- condition-set: 10 uM ATP, Rb protein substrate; read-out: IC50 CDK4/cyclinD
pIC50: −log10 of the molar value.
metric-name: pIC50

See these solved cases before continuing.
Exercise: Look up pIC50 for this molecule: Nc1nccc(-c2ccc(O)c(-c3ccnc(N)n3)n2)n1
Key: 6.07

Exercise: Cc1cc(-c2nc(-c3ccnc(N)c3F)ccc2O)nc(N)n1 [Example 24] , same question.
Key: 6.47

(P) Nc1nccc(-c2nc(-c3ccc(O)cc3)ccc2O)n1
(Q) CN(C)c1cc(-c2nc(-c3ccnc(N)c3F)ccc2O)nc(N)n1
(R) CC(C)c1cnc(N)nc1-c1nc(-c2ccnc(N)c2F)ccc1O
(S) CN1CCC(c2cc(-c3nc(-c4ccnc(N)c4F)ccc3O)nc(N)n2)CC1
(T) Cc1cc(-c2nc(-c3ccnc(N)c3F)ccc2O)nc(N)n1 [Example 71]
Exercise: Endpoint returns the given molecules ordered by ascending pIC50. # output: labels, in the requested order
Key: P, T, Q, S, R
(P: 6.54, T: 6.90, Q: 7.20, S: 7.50, R: 7.82)
